These compounds were tested on M3 muscarinic receptor (Rattus norvegicus, UniProt P08483); Receptor Binding Assay Selectivity M2/M3 is the recorded read-out.
Sequence (P08483 whole entry): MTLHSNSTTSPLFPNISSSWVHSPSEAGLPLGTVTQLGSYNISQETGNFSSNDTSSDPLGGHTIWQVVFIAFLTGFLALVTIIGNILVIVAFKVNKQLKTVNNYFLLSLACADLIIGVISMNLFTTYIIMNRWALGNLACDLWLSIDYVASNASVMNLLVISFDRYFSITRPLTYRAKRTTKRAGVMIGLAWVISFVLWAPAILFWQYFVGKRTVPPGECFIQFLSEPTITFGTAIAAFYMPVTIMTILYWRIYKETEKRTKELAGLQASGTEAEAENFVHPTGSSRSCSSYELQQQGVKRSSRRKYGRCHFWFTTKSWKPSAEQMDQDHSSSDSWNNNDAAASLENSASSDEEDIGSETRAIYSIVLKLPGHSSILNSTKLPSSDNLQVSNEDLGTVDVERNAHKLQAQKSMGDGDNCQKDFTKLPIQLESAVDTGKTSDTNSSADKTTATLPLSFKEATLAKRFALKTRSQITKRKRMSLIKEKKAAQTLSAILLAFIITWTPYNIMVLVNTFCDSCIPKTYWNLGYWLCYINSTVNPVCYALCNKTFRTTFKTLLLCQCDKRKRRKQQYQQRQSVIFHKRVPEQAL
Write the value as a bare number.

// below: answered compounds
- compound: "CC(c1ccccc1)N1CC2C(CNC(=O)C(O)(c3ccccc3)C3CCCC3)C2C1 (stereo not shown)"
  Receptor Binding Assay Selectivity M2/M3: 14.8
- compound: "O=C(NCC1C2CN(Cc3ccccc3)CC12)C(O)(c1ccccc1)C1CCCCC1 (single isomer, unassigned) [Compound No. 28]"
  Receptor Binding Assay Selectivity M2/M3: 3.5
- compound: "O=C(NC[C@@H]1[C@H]2CN(Cc3ccccc3)C[C@@H]12)C(O)(c1ccccc1)C1CCC1 (stereo partly shown)"
  Receptor Binding Assay Selectivity M2/M3: 8

I am curious: what Receptor Binding Assay Selectivity M2/M3 value has been reported for CC(C)=CCCN1CC2C(CNC(=O)C(O)(c3ccccc3)C3CCCC3)C2C1 (stereo not shown) ?
7.6

Same read-out for O=C(NC[C@@H]1[C@H]2CN(Cc3ccccc3)C[C@@H]12)C(O)(c1ccccc1)C1CC1 (stereo partly shown) ?
6.6

Same read-out for O=C(NCC1C2CN(Cc3ccccc3)CC12)C(O)(c1ccccc1)C1CCCCC1 (stereo not shown) [Compound No. 2] ?
25

Same read-out for CC(C)=CCCN1C[C@@H]2[C@@H](CNC(=O)C(O)(c3ccccc3)C3CCCCC3)[C@@H]2C1 (stereo partly shown) ?
19
